Values compiled from patent US10703748B2.

- Test system: Tau phosphorylation at Ser396 (pSer396)
- measurement protocol: Tau phosphorylation at Ser396 (pSer396) in SH-SY5Y cells, ELISA / western blot;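 note: decrease in pSer396 Tau measured in lysates of treated cells by colorimetric ELISA or chemiluminescent western blot, same pSer396 antibody for both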
- Format: cell-based, human
- condition description: Homo sapiens, SH-SY5Y, read-out: EC50 in the Tau assay
pEC50: −log10 of the molar value.
observed property: pEC50

Inquiry: Can you look up the measured pEC50 of COc1ccc2c(c1)[nH]c1c(C)nccc12 [Harmine, reference compound] for me?
Reply text: < 5.00

====

Answer each item with its documented log10 EC50.
- target desc: DYRK1A kinase (Homo sapiens, UniProt Q13627)
- measurement protocol: DYRK1A kinase activity (Ser/Thr 18 peptide Z-lyte FRET assay);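 note: kinase activity read as coumarin/fluorescein emission ratio after development step, with unphosphorylated and phosphorylated peptide forms setting 0% and 100% controls, values from dose-response curves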
- condition description: recombinant DYRK1A, 30 μM ATP, one hour at room temperature
The figures below represent log10 of EC50, where EC50 is stated in nM.

Here is how some molecules turned out for log10 EC50.
molecule | log10 EC50
CC(C)OCCC(=O)Nc1ncc2ccc(-c3cncn3C)cc2n1 | 1.72
CN1CCN(c2ncc(C(=O)Nc3ncc4ccc(-c5cnn(C)c5)cc4n3)s2)CC1 | 0.48
CC(F)(F)CN1CCC(C(=O)Nc2cc3cc(-c4cnco4)ncc3cn2)CC1 | 3.51
Cn1cncc1-c1cc2cc(NC(=O)C3CCC(F)(F)CC3)ncc2cn1 | 1.32
CCN(CC)CC(=O)Nc1ncc2ccc(-c3cnn(C)c3CN3CCCCC3)cc2n1 | 2.27
O=C(Nc1ncc2ccc(-c3cncs3)cc2n1)[C@H]1CC[C@H](CN2CC(F)C2)CC1 | 1.04

For each entry beneath this line, provide reported log10 EC50.
1. Cn1cc(-c2ccc3cnc(NC(=O)C4CCN(Cc5ncco5)CC4)cc3n2)cn1
2. Nc1cncc(-c2cc3cc(NC(=O)c4ccc(OC5CCNCC5)cc4)ncc3cn2)c1
3. Cn1cc(-c2ccc3cnc(NC(=O)c4ccnc(OC5CCNCC5)c4)cc3n2)cn1
4. Cn1cncc1-c1cnc2cnc(NC(=O)c3ccc(F)cc3)cc2c1
5. O=C(Nc1cc2nc(-c3cnco3)ccc2cn1)c1ccc(OC2CCNCC2)cc1
6. Cc1ncc(-c2ccc3cnc(NC(=O)C(C)N4CCCCC4)nc3c2)n1C (centres unmarked)
7. CN1CCN(c2cc(C(=O)Nc3ncc4ccc(-c5cnn(C)c5)cc4n3)ccn2)CC1
8. O=C(Nc1cc2nc(-c3cnco3)ccc2cn1)[C@H]1CC[C@H](CO)CC1

Reply text:
1. 0.78
2. 0.48
3. 0.60
4. 0.90
5. 0.70
6. 2.83
7. 0.90
8. 1.28

Look up log10 EC50 for the entries below, preserving their order.
1. Cc1ncc(-c2ccc3cnc(NC(=O)[C@H]4CC[C@H](CO)CC4)cc3n2)s1
2. Cn1cc(-c2cc3cc(NC(=O)C4CCN(Cc5ncccn5)CC4)ncc3cn2)cn1
3. Cc1ncc(C(=O)Nc2cc3nc(-c4cnc(C)n4C)ccc3cn2)s1

Reply text:
1: 0.60; 2: 0.60; 3: 0.00
